Data origin, for the record: paper PMC12750995

- test name: Caco-2 A-B passive permeability with preincubation, transporter-inhibited
- Format: in vitro ADME
- condition details: human, Caco-2, with 50 μM quinidine, 30 μM benzbromarone, 20 μM sulfasalazine; Figure 3A grouping; read-out: Passive Caco-2 cell permeability group (high, moderate or low)
measure name: Papp A→B at 120 min, 10 μM

| compound | Papp A→B at 120 min, 10 μM |
| --- | --- |
| CCCOc1cccc(Oc2cc3c(cc2NS(=O)(=O)c2cccc(C(=O)NCCOCCOCCOCC(=O)N[C@@H](C(=O)N4C[C@@H](O)C[C@@H]4C(=O)NCc4ccc(-c5scnc5C)cc4)C(C)(C)C)c2)n(C)c(=O)n3C)c1 | 0.5 to 10 ×10⁻⁶ cm/s |

Please examine the following record next.
Papp A→B at 120 min, 10 μM recorded for this compound, COc1cc2c(Oc3ccc(NC(=O)C4(C(=O)Nc5ccc(F)cc5)CC4)cc3F)ccnc2cc1OCCCCOCCCCOCC(=O)NC(C(=O)N1CC(O)CC1C(=O)NCc1ccc(-c2scnc2C)cc1)C(C)(C)C (centres unmarked) , is < 0.5 ×10⁻⁶ cm/s

====

- test name: in vitro
- condition details: human, HEK293 cell homogenate, pH 7.4; n = 3
measure name: fraction unbound at 4 h, 0.1 μM

Here are 3 molecules together with their reported answers.
| molecule | fraction unbound at 4 h, 0.1 μM |
| --- | --- |
| Cc1sc2c(c1C)C(c1ccc(Cl)cc1)=N[C@@H](CC(=O)NCCOCCOCCNC(=O)COc1cccc3c1C(=O)N(C1CCC(=O)NC1=O)C3=O)c1nnc(C)n1-2 (stereo partly shown) | 0.432 |
| Cc1sc2c(c1C)C(c1ccc(Cl)cc1)=N[C@@H](CC(=O)NCCCCNC(=O)COc1cccc3c1C(=O)N(C1CCC(=O)NC1=O)C3=O)c1nnc(C)n1-2 (stereo partly shown) | 0.411 |
| COc1cc(-c2cn(C)c(=O)c3cnccc23)cc(OC)c1CN(C)CC(=O)NCCCCCCCCNc1cccc2c1C(=O)N(C1CCC(=O)NC1=O)C2=O (stereo not shown) | 0.19 |

A = Cc1sc2c(c1C)C(c1ccc(Cl)cc1)=N[C@@H](CC(=O)NC[C@@H]1CCC[C@H](CNc3cccc4c3C(=O)N(C3CCC(=O)NC3=O)C4=O)C1)c1nnc(C)n1-2 (mixture of isomers)
B = Cc1ncsc1-c1ccc(CNC(=O)[C@@H]2C[C@@H](O)CN2C(=O)[C@@H](NC(=O)CCCCNC(=O)C[C@@H]2N=C(c3ccc(Cl)cc3)c3c(sc(C)c3C)-n3c(C)nnc32)C(C)(C)C)cc1
C = Cc1sc2c(c1C)C(c1ccc(Cl)cc1)=N[C@@H](CC(=O)N1CCC(Oc3cccc4c3C(=O)N(C3CCC(=O)NC3=O)C4=O)C1)c1nnc(C)n1-2 (stereo partly shown)
D = Cc1ncsc1-c1ccc(CNC(=O)[C@H]2C[C@H](O)CN2C(=O)[C@@H](NC(=O)COCCOCCOCCNC(=O)C[C@@H]2N=C(c3ccc(Cl)cc3)c3c(sc(C)c3C)-n3c(C)nnc32)C(C)(C)C)cc1
Inquiry: With regard to fraction unbound at 4 h, 0.1 μM, arrange the entries in ascending order, please. Form field (ranking): labels in requested order.
Reply text: A, B, D, C

1 = Cc1sc2c(c1C)C(c1ccc(Cl)cc1)=N[C@@H](CC(=O)NCCCCCCCCNC(=O)COc1cccc3c1C(=O)N(C1CCC(=O)NC1=O)C3=O)c1nnc(C)n1-2 (stereo partly shown)
2 = Cc1sc2c(c1C)C(c1ccc(Cl)cc1)=N[C@@H](CC(=O)NCCOCCNC(=O)COc1cccc3c1C(=O)N(C1CCC(=O)NC1=O)C3=O)c1nnc(C)n1-2 (stereo partly shown)
Inquiry: Could you determine which record has the numerically smaller fraction unbound at 4 h, 0.1 μM? Candidates: 1 and 2 Field: selected label. Fill in the label of the entry you choose.
Reply text: 1

====

- test name: Equilibrium dialysis binding to HEK293 cell homogenate (fraction unbound)
- Assay type: in vitro ADME
- condition details: human, pH 7.4; fraction unbound in HEK293 cell homogenate, 10 × 10^6 cells/mL, 0.1 μM, 4 h, 37 °C; read-out: fu,hom
measure name: fraction unbound at 4 h, 0.1 μM

| compound | fraction unbound at 4 h, 0.1 μM |
| --- | --- |
| Cc1ccc(C(=O)NCCCCc2cn(CCCC(=O)NCCCCNc3cccc4c3C(=O)N(C3CCC(=O)NC3=O)C4=O)nn2)cc1-n1c(C)cc(OCc2ccc(F)cc2F)c(Br)c1=O (centres unmarked) [Compound 3] | 0.24 |

I = CC(=O)c1c(C)c2cnc(Nc3ccc(N4CCN(CCOCCOCCOCCNC(=O)COc5cccc6c5C(=O)N([C@H]5CCC(=O)NC5=O)C6=O)CC4)cn3)nc2n(C2CCCC2)c1=O [Compound 5]
II = CCCOc1cccc(Oc2cc3c(cc2NS(=O)(=O)c2cccc(C(=O)NCCOCCOCCOCC(=O)N[C@@H](C(=O)N4C[C@@H](O)C[C@@H]4C(=O)NCc4ccc(-c5scnc5C)cc4)C(C)(C)C)c2)n(C)c(=O)n3C)c1 [Compound 4]
III = COc1cc2c(Oc3ccc(NC(=O)C4(C(=O)Nc5ccc(F)cc5)CC4)cc3F)ccnc2cc1OCCCCOCCCCOCC(=O)NC(C(=O)N1CC(O)CC1C(=O)NCc1ccc(-c2scnc2C)cc1)C(C)(C)C (centres unmarked) [Compound 1]
Inquiry: Put the items in sequence by fraction unbound at 4 h, 0.1 μM, from largest down. # the answer lists labels in the order requested
Reply text: I, II, III

====

- System: Caco-2 monolayer
- test name: Caco-2 A-B passive permeability with preincubation, transporter-inhibited
- Format: in vitro ADME
- condition details: recovery from donor and receiver compartments, 0-120 min
measure name: Papp Recovery (%) (0-120 min)

These solved cases illustrate the format of a correct answer.
| molecule | measure name | value reported |
| --- | --- | --- |
| CCCOc1cccc(Oc2cc3c(cc2NS(=O)(=O)c2cccc(C(=O)NCCOCCOCCOCC(=O)N[C@@H](C(=O)N4C[C@@H](O)C[C@@H]4C(=O)NCc4ccc(-c5scnc5C)cc4)C(C)(C)C)c2)n(C)c(=O)n3C)c1 [Compound 4] | Papp Recovery (%) (0-120 min) | 78 |
| Cc1ccc(C(=O)NCCCCc2cn(CCCC(=O)NCCCCNc3cccc4c3C(=O)N(C3CCC(=O)NC3=O)C4=O)nn2)cc1-n1c(C)cc(OCc2ccc(F)cc2F)c(Br)c1=O (centres unmarked) [Compound 3] | Papp Recovery (%) (0-120 min) | 94 |
| Cc1ncsc1-c1ccc(CNC(=O)[C@@H]2C[C@@H](O)CN2C(=O)[C@@H](NC(=O)COCCCCOc2ccc(-c3ccc(N4C(=S)N(c5ccc(C#N)c(C(F)(F)F)c5)C(=O)C4(C)C)cc3)cc2)C(C)(C)C)cc1 [Compound 2] | Papp Recovery (%) (0-120 min) | 87 |

A = CC(=O)c1c(C)c2cnc(Nc3ccc(N4CCN(CCOCCOCCOCCNC(=O)COc5cccc6c5C(=O)N([C@H]5CCC(=O)NC5=O)C6=O)CC4)cn3)nc2n(C2CCCC2)c1=O [Compound 5]
B = COc1cc2c(Oc3ccc(NC(=O)C4(C(=O)Nc5ccc(F)cc5)CC4)cc3F)ccnc2cc1OCCCCOCCCCOCC(=O)NC(C(=O)N1CC(O)CC1C(=O)NCc1ccc(-c2scnc2C)cc1)C(C)(C)C (centres unmarked) [Compound 1]
Inquiry: For the pair A and B , which member has the lower Papp Recovery (%) (0-120 min) number? Indicate your choice by writing its label.
Reply text: B
(B: 39%, A: 84%)

====

Quick list: Papp A→B at 120 min, 10 μM per entry.
- test name: Caco-2 A-B passive permeability with preincubation, transporter-inhibited
- Assay type: in vitro ADME
- condition details: human, Caco-2, with 50 μM quinidine, 30 μM benzbromarone, 20 μM sulfasalazine; Figure 3A grouping; read-out: Passive Caco-2 cell permeability group (high, moderate or low)

| compound | Papp A→B at 120 min, 10 μM |
| --- | --- |
| CC(=O)c1c(C)c2cnc(Nc3ccc(N4CCN(CCOCCOCCOCCNC(=O)COc5cccc6c5C(=O)N([C@H]5CCC(=O)NC5=O)C6=O)CC4)cn3)nc2n(C2CCCC2)c1=O [Compound 5] | 0.5 to 10 ×10⁻⁶ cm/s |
| Cc1ccc(C(=O)NCCCCc2cn(CCCC(=O)NCCCCNc3cccc4c3C(=O)N(C3CCC(=O)NC3=O)C4=O)nn2)cc1-n1c(C)cc(OCc2ccc(F)cc2F)c(Br)c1=O (centres unmarked) [Compound 3] | < 0.5 ×10⁻⁶ cm/s |
| COc1cc(-c2cn(C)c(=O)c3cnccc23)cc(OC)c1CN(C)CC(=O)NCCOCCOCCNc1cccc2c1C(=O)N(C1CCC(=O)NC1=O)C2=O (centres unmarked) [Compound 10] | < 0.5 ×10⁻⁶ cm/s |
| Cc1sc2c(c1C)C(c1ccc(Cl)cc1)=N[C@@H](CC(=O)NCCCCNC(=O)COc1cccc3c1C(=O)N(C1CCC(=O)NC1=O)C3=O)c1nnc(C)n1-2 (some centres unmarked) [Compound 9] | < 0.5 ×10⁻⁶ cm/s |
| COc1cc(-c2cn(C)c(=O)c3cnccc23)cc(OC)c1CN(C)CC(=O)NCCCCCCCCNc1cccc2c1C(=O)N(C1CCC(=O)NC1=O)C2=O (centres unmarked) [Compound 7] | > 10 ×10⁻⁶ cm/s |

Sure, the documented Papp A→B at 120 min, 10 μM for Cc1sc2c(c1C)C(c1ccc(Cl)cc1)=N[C@@H](CC(=O)NCCCCCCCCNC(=O)COc1cccc3c1C(=O)N(C1CCC(=O)NC1=O)C3=O)c1nnc(C)n1-2 (some centres unmarked) [Compound 8] is > 10 ×10⁻⁶ cm/s

The recorded Papp A→B at 120 min, 10 μM for entry Cc1ncsc1-c1ccc(CNC(=O)[C@H]2C[C@H](O)CN2C(=O)[C@@H](NC(=O)COCCOCCOCCNC(=O)C[C@@H]2N=C(c3ccc(Cl)cc3)c3c(sc(C)c3C)-n3c(C)nnc32)C(C)(C)C)cc1 [Compound 6] equals 0.5 to 10 ×10⁻⁶ cm/s

Per the record, Cc1ncsc1-c1ccc(CNC(=O)[C@@H]2C[C@@H](O)CN2C(=O)[C@@H](NC(=O)COCCCCOc2ccc(-c3ccc(N4C(=S)N(c5ccc(C#N)c(C(F)(F)F)c5)C(=O)C4(C)C)cc3)cc2)C(C)(C)C)cc1 [Compound 2] has Papp A→B at 120 min, 10 μM of < 0.5 ×10⁻⁶ cm/s
